- systemTested: pooled human IgG (human IgG1,2,3 and 4)
Measured Enzyme activity endpoint: Fab′2 accompanies every entry in the list below.
Write the number in ng/µL without appending the unit.

protein	resultValue
PRT-626 (protein) MQITSVWTKGVTPLTPEQFRYNNEDVIHAPYLAHQGWYDITKAFDGKDNLLCGAATAGNMLHWWFDQNKTEIEAYLSKHPEKQKIIFNNQELFDLKAAIDTKDSQTNSQLFNYFRDKAFPNLSARQLGVMPDLVLDMFINGYYLNVFKTQSTDVNRPPDDKDKRGGIFDHVFNRGDQTTLLTARHDLKNKGLNDISTIIKQELTEGRALALSHTYANVSISHVINLWGADFNAEGNLEAIYVTDSDANASIGMKKYFVGINAHGHVAISAKKIEGENIGAQVLGLFTLSSGKDIWQKLSLEHHHHHH	569

Specify measured Enzyme activity endpoint: Fab′2 for PRT-531 (protein) MANQEIRYSEDTPSHITSVWTKGVTPPTQFIQNEDVLHAPYIANQGWYDITKTFNGKDDLLCGAATAGNMLHWWFDQNKEQIEAYLKKYPEKQKINFNGEQMFDVKEAIDTKDSQTDSALFNYFRDKAFPNLSTKHLGVMPDHVIDMFINGYRLNLGNHGPTPVKNQTKDLRGGIFDAVFTRGDQSKLLTARHDFKEKTLKEISQLIKQELTEGKALALSHTYANVRINHVINLWGADFNAEGNLEAIYVTDSDSNASIGMKKYYVGVNAAGKVAISAKEIEGDNIGAQVLGLFTLSSGQDIWQQTNLEHHHHHH .
756
